# measured_target: T1, recombinant soluble human IL-6 receptor (SR344) (human, UniProt P08887 20-344, biotinylated (sites not given) where immobilized via streptavidin or used in phage ELISA)
# T1 construct: also called soluble IL-6 receptor; membrane-type IL-6 receptor (when biotinylated and immobilized on the chip)
# T1 sequence (looked up): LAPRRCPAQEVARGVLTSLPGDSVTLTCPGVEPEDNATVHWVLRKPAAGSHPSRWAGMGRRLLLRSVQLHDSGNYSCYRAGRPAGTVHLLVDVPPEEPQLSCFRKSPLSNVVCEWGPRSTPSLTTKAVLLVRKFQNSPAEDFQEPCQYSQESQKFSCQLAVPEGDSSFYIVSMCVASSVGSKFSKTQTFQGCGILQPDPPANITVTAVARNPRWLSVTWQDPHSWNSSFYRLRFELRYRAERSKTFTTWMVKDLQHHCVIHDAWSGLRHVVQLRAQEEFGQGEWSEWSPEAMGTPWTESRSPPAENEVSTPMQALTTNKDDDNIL
# assay: SPR Biacore T100, antibody on protein A/G chip, SR344 analyte, pH 5.8, 37 C
Please provide measured koff for the entries that follow.
A number alone suffices; assume s⁻¹.

Problem: I am curious: what koff value has been reported for H3pI/L73 (antibody, IgG1, V domains shown, tested as IgG1; also called H3pI/L73-IgG1; H3pl/L73) VH: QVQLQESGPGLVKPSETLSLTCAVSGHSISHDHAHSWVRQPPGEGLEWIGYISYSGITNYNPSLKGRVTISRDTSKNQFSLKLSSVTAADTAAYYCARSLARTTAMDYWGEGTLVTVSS VL: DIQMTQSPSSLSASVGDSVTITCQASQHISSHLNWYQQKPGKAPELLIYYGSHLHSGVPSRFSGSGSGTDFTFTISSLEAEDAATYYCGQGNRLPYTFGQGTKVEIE ?
Solution: 0.0097

Problem: Given H170/L82 (antibody, IgG1, V domains shown, expressed and purified as IgG (IgG1); also called H170/L82-IgG1) VH: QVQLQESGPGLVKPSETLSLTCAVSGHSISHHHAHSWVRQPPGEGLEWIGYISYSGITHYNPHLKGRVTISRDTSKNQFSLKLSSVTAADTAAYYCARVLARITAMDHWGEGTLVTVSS VL: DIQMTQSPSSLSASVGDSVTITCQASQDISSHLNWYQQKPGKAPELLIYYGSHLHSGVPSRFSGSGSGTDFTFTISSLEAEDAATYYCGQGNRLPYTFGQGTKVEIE , state its recorded koff.
Solution: 0.017

Problem: Look at this binder and give its reported koff. humanized PM1 antibody (wild type, WT) (antibody, human IgG1, kappa, V domains shown, IgG1; also called WT-IgG1; wild type humanized anti-IL-6 receptor antibody) VH: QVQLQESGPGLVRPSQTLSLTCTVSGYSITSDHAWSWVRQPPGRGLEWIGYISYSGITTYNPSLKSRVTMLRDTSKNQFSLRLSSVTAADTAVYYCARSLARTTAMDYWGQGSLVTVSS VL: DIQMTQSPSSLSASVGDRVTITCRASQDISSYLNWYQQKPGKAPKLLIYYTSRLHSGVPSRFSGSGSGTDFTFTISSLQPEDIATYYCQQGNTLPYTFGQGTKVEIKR
Solution: 0.0038

Problem: I'd like to know its koff. The binder in question is CLH5/L73 (antibody, IgG1, V domains shown, expressed and purified as IgG) VH: QVQLQESGPGLVKPSETLSLTCAVSGYSISHDHAWSWVRQPPGEGLEWIGHISYSGITNYNPHLKGRVTISRDTSKNQFSLKLSSVTAADTAAYYCARFLARITAHDHWGEGTLVTVSS VL: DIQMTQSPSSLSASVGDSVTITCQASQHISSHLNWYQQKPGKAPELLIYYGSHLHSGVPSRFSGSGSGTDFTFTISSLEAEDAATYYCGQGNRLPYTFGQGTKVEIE
Solution: 0.028
